Molecular target: T1, human KLRB1 protein extracellular domain (ECD) (human, UniProt Q12918 67-225)
T1 construct: range 67-225; The ELISA and SPR text says only 'human KLRB1 ECD'; also called human KLRB1 ECD; CD161
T1 sequence (looked up): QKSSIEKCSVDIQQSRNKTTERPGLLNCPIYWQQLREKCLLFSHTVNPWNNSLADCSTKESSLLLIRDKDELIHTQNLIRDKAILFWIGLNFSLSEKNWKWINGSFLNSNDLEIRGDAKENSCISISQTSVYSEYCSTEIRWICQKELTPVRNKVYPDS
Experiment: SPR, human KLRB1 ECD; format not stated
Catalogue of Kd readings, one per entry.
Answers without a unit are incomplete; give the number and then its unit.

Recorded results for 2 binders are shown here.
# binder, observed
measured = [
    ("10A3D6C109S-chimeric (antibody, human IgG1, V domains shown, Chimeric mutated variant; the name hIgG1k indicates human IgG1 kappa constant regions; also called 10A3D6C109ShIgG1k) VH: EVQLQQSGPELVKPGASMKISCKASGYSFTGYTMNWVKQSHGKNLEWIGLINPNTGGTYYNQKFKDKATLTVDKSSSTAYMELLSLTSEDSAVYYCARLGDNYRGYFDSWGQGTTLTVSS VL: DIVMTQSHKFMSTSVGDRVNITCKASQDVGTAVVWYQQTPGQSPKVLIDWASIRHTGVPDRFTGSGSGTDFTLTISSVQSEDLADYFCQQYSTYLYTFGGGTKLEIK", "0.0511 nM"),
    ("10A3D6C109Chum3.5 (antibody, V domains shown, Humanized variant of 10A3D6 made by CDR grafting) VH: QVQLVQSGAEVKKPGASVKVSCKASGYSFTGYTMNWVRQAHGQNLEWIGLINPNTGGTYYNQKFKDRVTLTVDTSISTAYMELSRLRSDDTAVYYCARLGDNYRGYFDCWGQGTTVTVSS VL: EIVMTQSPATLSVSPGERATLSCKASQDVGTAVVWYQQKPGQAPRLLIDWASIRHTGIPARFSGSGSGTEFTLTISSLQSEDFAVYYCQQYSTYLYTFGGGTKVEIK", "0.144 nM"),
]

Bench note: what Kd did 10A3D6C109Chum2.1 (antibody, V domains shown, Humanized variant of 10A3D6 made by CDR grafting) VH: QVQLVQSGAEVKKPGASVKVSCKASGYSFTGYTMNWVRQAPGQNLEWIGLINPNTGGTYYNQKFKDRVTLTVDTSISTAYMELSRLRSDDTAVYYCARLGDNYRGYFDCWGQGTTVTVSS VL: DIQLTQSPSFLSASVGDRVTITCKASQDVGTAVVWYQQKPGKAPKLLIYWASIRHTGVPSRFSGSGSGTEFTLTISSLQPEDFATYYCQQYSTYLYTFGGGTKLEIK show?
12.9 nM

Ref: patent US20250270328A1
